Biological target: Glutamate NMDA receptor
Experiment: Tested for binding affinity against NMDA receptor, from rat synaptic membrane, using [3H]glycine as the radioligand.
quantity: IC50 (µM)

[A] NC(Cc1nc2ccc(Cl)cc2nc1CP(=O)(O)O)C(=O)O (stereo unspecified)
[B] NC(Cc1nc2ccccc2nc1CP(=O)(O)O)C(=O)O (stereo in doubt; 7)
[C] NC(Cc1nc2cc(Cl)c(Cl)cc2nc1CP(=O)(O)O)C(=O)O (stereo unspecified)
(Q) Kindly order the items shown according to IC50, from the highest value down. Respond with an ordered listing of the labels, as requested.
(A) B, A, C
(B: 4.7 µM, A: 1.8 µM, C: 0.61 µM)

====

Target: Glutamate NMDA receptor
Assay: Tested for binding affinity against NMDA receptor, from rat synaptic membrane, using [3H]-CPP as the radioligand.
pIC50: −log10 of the molar value.
quantity: pIC50

# compound, pIC50
records = [
    ("NC(Cc1nc2ccc(Cl)cc2nc1CP(=O)(O)O)C(=O)O (stereo unspecified)", 7.42),
]

[1] NC(Cc1nc2cc(F)c(F)cc2nc1CP(=O)(O)O)C(=O)O (stereo unspecified)
[2] NC(Cc1nc2cc(Cl)c(Cl)cc2nc1CP(=O)(O)O)C(=O)O (stereo unspecified)
[3] O=C(O)[C@@H]1C[C@H](CP(=O)(O)O)CCN1
[4] NC(Cc1nc2cc3ccccc3cc2nc1CP(=O)(O)O)C(=O)O (stereo unspecified)
(Q) Please put the entries in order of rising pIC50. Hello, could you send the labels back in the order asked? Thank you.
(A) 1, 3, 4, 2
(1: 6.78, 3: 7.55, 4: 8.19, 2: 8.47)

====

Molecular target: Glutamate NMDA receptor
Assay: Tested for binding affinity against NMDA receptor, from rat synaptic membrane, using [3H]-CPP as the radioligand.
quantity: IC50 (nM)

Here is how some compounds turned out for IC50.
# compound, reading unit, value measured
measured = [
    ("NC(Cc1nc2c(Cl)ccc(Cl)c2nc1CP(=O)(O)O)C(=O)O (stereo unspecified)", "nM", 245),
    ("NC(Cc1nc2cc(Cl)ccc2nc1CP(=O)(O)O)C(=O)O (stereo unspecified)", "nM", 24),
    ("COc1cc2nc(CC(N)C(=O)O)c(CP(=O)(O)O)nc2cc1OC (stereo unspecified)", "nM", 832),
    ("NC(Cc1nc2ccccc2nc1CP(=O)(O)O)C(=O)O (stereo in doubt; 9)", "nM", 29.3),
    ("NC(Cc1nc2ccccc2nc1CP(=O)(O)O)C(=O)O (stereo in doubt; 7)", "nM", 119),
]

[1] O=C(O)C1CN(CCCP(=O)(O)O)CCN1 (stereo unspecified)
[2] Cc1cc2nc(CC(N)C(=O)O)c(CP(=O)(O)O)nc2cc1C (stereo unspecified)
(Q) Name the one with the greater IC50 value, either 1 or 2 as given. Your answer should be the label attached to the chosen record.
(A) 1
(1: 113 nM, 2: 22.3 nM)

====

Target: Glutamate NMDA receptor
Assay: Tested for binding affinity against NMDA receptor, from rat synaptic membrane, using [3H]TCP as the radioligand.
pIC50: −log10 of the molar value.
quantity: pIC50

# compound, assay target, pIC50
rows = [
    ("NC(CCCCCP(=O)(O)O)C(=O)O (stereo not drawn)", "Glutamate NMDA receptor", 3.52),
]

[P] NC(Cc1nc2cc3ccccc3cc2nc1CP(=O)(O)O)C(=O)O (stereo not drawn)
[Q] NC(Cc1nc2ccccc2nc1CP(=O)(O)O)C(=O)O (stereo in doubt; 7)
(Q) Just tell me: smaller pIC50 value, P or Q ? State the label of the item chosen.
(A) Q
(Q: 4.55, P: 5.25)

====

Target: Glutamate NMDA receptor
Assay: Tested for binding affinity against NMDA receptor, from rat synaptic membrane, using [3H]glycine as the radioligand.
Measured IC50 of individual entries

# compound, assay target, IC50
measured = [
    ("NC(Cc1nc2cc(Cl)ccc2nc1CP(=O)(O)O)C(=O)O (stereo not drawn)", "Glutamate NMDA receptor", "> 100 µM"),
]

Simply: O=C(O)[C@@H]1C[C@H](CP(=O)(O)O)CCN1 , Glutamate NMDA receptor, IC50 = > 100 µM

Test item O=C(O)C1CN(CCCP(=O)(O)O)CCN1 (stereo not drawn) ; Glutamate NMDA receptor; reported IC50 was > 100 µM
